- System: C. albicans Wisc.
- protocol.summary: In vitro antifungal activity, MIC (modified Autotiter method)
- Type: cell-based, Candida albicans
- condition.description: Candida albicans, 20 h, 18-20 hours at 37° C.; read-out: MIC C. albicans Wisc.
- Method: The antibacterial and antifungal activity of representative examples of the compounds of Formula I was determined using a modification of the Autotiter method described by Goss, et al. Applied Microbiology 16 (9) 1,414-1,416 (1968) in which a 1,000 mcg./ml. solution of the test compound is prepared. To the first cup of the Autotray is added 0.1 ml. of the test solution. […]
quantity.kind: MIC (mg/L)
Field: numeric (mg/L). Do not append units.

molecule: c1c[n+](CCCCC[n+]2ccc(NC3CCCCC3)cc2)ccc1NC1CCCCC1 [Example 35]
assay.system: C. albicans Wisc.
MIC, mg/L: 500
//
molecule: CCCCCCCCCCNc1cc[n+](CCCCCCCCCCCC[n+]2ccc(NCCCCCCCCCC)cc2)cc1 [Example 69]
assay.system: C. albicans Wisc.
MIC, mg/L: 15.6
//
molecule: CCCCCCNc1cc[n+](CCCCC[n+]2ccc(NCCCCCC)cc2)cc1 [Example 31]
assay.system: C. albicans Wisc.
MIC, mg/L: 62.5
//
molecule: c1c[n+](CCCCCCC[n+]2ccc(NC3CCCCC3)cc2)ccc1NC1CCCCC1 [Example 37]
assay.system: C. albicans Wisc.
MIC, mg/L: 125
//
molecule: CCCCCCCNc1cc[n+](CCCC[n+]2ccc(NCCCCCCC)cc2)cc1 [Example 20]
assay.system: C. albicans Wisc.
MIC, mg/L: 15.6
//
molecule: Clc1ccc(Nc2cc[n+](CCCCCC[n+]3ccc(Nc4ccc(Cl)cc4)cc3)cc2)cc1 [Example 77B]
assay.system: C. albicans Wisc.
MIC, mg/L: 125
//
molecule: CCCCCCCCCCCCNc1cc[n+](CCCCCC[n+]2ccc(NCCCCCCCCCCCC)cc2)cc1 [Example 70]
assay.system: C. albicans Wisc.
MIC, mg/L: 31.3
//
molecule: Fc1ccc(Nc2cc[n+](CCCCCCCC[n+]3ccc(Nc4ccc(F)cc4)cc3)cc2)cc1 [Example 84]
assay.system: C. albicans Wisc.
MIC, mg/L: 7.8

Read the next record carefully.
Query string: Looking for the measured MIC of CCCCCCCCNc1cc[n+](CCCCCCCCCC[n+]2ccc(NCCCCCCCC)cc2)cc1 [10A,B] , can you help?
Result string: 1.95

---

Below: a set of entries, each annotated with reported MIC.
- Tested on: S. Aureus Smith
- protocol.summary: In vitro antibacterial activity, MIC (modified Autotiter method)
- Type: cell-based, Staphylococcus aureus
- condition.description: Staphylococcus aureus, 20 h, 18-20 hours at 37° C.; read-out: MIC S. Aureus Smith
Field: numeric (µg/mL). Do not append units.

Consider the following illustrative entries.
compound: CCCCC(CC)CNc1cc[n+](CCCCCC[n+]2ccc(NCC(CC)CCCC)cc2)cc1 (centres unmarked)
quantity.kind: MIC
measure.unit: µg/mL
recorded.result: 0.49
//
compound: CCCCCCCCCNc1cc[n+](CCCCCCCC[n+]2ccc(NCCCCCCCCC)cc2)cc1 [Example 29C]
quantity.kind: MIC
measure.unit: µg/mL
recorded.result: 1
//
compound: CCCCCCCCCCNc1cc[n+](CCCCCCCCCCCC[n+]2ccc(NCCCCCCCCCC)cc2)cc1
quantity.kind: MIC
measure.unit: µg/mL
recorded.result: 1.95

Query string: Param readout= MIC; system= S. Aureus Smith; entry= Clc1ccc(Nc2cc[n+](CCCCC[n+]3ccc(Nc4ccc(Cl)cc4)cc3)cc2)cc1 ; returns value.
Result string: 7.8

Query string: // repeat for Clc1ccc(Nc2cc[n+](CCCCCCCCC[n+]3ccc(Nc4ccc(Cl)cc4)cc3)cc2)cc1 and report
Result string: 0.625

Query string: // repeat for CCCCCCCCCNc1cc[n+](CCCCCCCCC[n+]2ccc(NCCCCCCCCC)cc2)cc1 and report
Result string: 1.95

Query string: // repeat for CCCCCCCCCCCCNc1cc[n+](CCCCCC[n+]2ccc(NCCCCCCCCCCCC)cc2)cc1 and report
Result string: 7.8

Query string: // repeat for CCCCCCCCCNc1cc[n+](CCCCCCCCCC[n+]2ccc(NCCCCCCCCC)cc2)cc1 and report
Result string: 1.95

---

- System: S. Aureus ATCC 6538
- protocol.summary: Effect of serum on bacteriostatic activity (serial tube dilution test)
- Format: cell-based, Staphyloccocus aureus
- condition.description: Staphylococcus aureus, ATCC6538; 40% heat inactivated horse serum; read-out: MIC S. Aureus ATCC 6538 40% Serum
quantity.kind: MIC (µg/mL)
Field: numeric (µg/mL). Do not append units.

Consider the following illustrative entries.
compound: CCCCC(CC)CNc1cc[n+](CCCCCCCCCCCC[n+]2ccc(NCC(CC)CCCC)cc2)cc1 (stereo not shown) [Example 41C]
MIC, µg/mL: 7.8

compound: CCCCCCCCCNc1cc[n+](CCCCCCCC[n+]2ccc(NCCCCCCCCC)cc2)cc1 [Example 29C]
MIC, µg/mL: 7.8

compound: CCCCCCNc1cc[n+](CCCCCCCCCCCCCC[n+]2ccc(NCCCCCC)cc2)cc1 [Example 5C]
MIC, µg/mL: 3.12

compound: CCCCCCNc1cc[n+](CCCCCCCCCCCC[n+]2ccc(NCCCCCC)cc2)cc1 [Example 7]
MIC, µg/mL: 1.56

compound: CCCCCCCNc1cc[n+](CCCCCCCCC[n+]2ccc(NCCCCCCC)cc2)cc1 [Example 24]
MIC, µg/mL: 1.95

Query string: Looking for the measured MIC of CCCCCCCCNc1cc[n+](CCCCCC[n+]2ccc(NCCCCCCCC)cc2)cc1 [Example 13] , can you help?
Result string: 31.2

Query string: // repeat for CCCCCCCCNc1cc[n+](CCCCCCCCCC[n+]2ccc(NCCCCCCCC)cc2)cc1 [Example 9D] and report
Result string: 7.8

---

- System: S. pyogen. C203
- protocol.summary: In vitro antibacterial activity, MIC (modified Autotiter method)
- Assay type: cell-based, Streptococcus pyogenes
- condition.description: Streptococcus pyogenes, 20 h, 18-20 hours at 37° C.; read-out: MIC S. pyogen. C203
quantity.kind: MIC (µg/mL)
Field: numeric (µg/mL). Do not append units.

molecule: CCCCCCCCCNc1cc[n+](CCCCCCCC[n+]2ccc(NCCCCCCCCC)cc2)cc1 [Example 29C]
assay.system: S. pyogen. C203
quantity.kind: MIC
measure.unit: µg/mL
recorded.result: 1.95

molecule: CCCCCCCCNc1cc[n+](CCCCCCCCCCCC[n+]2ccc(NCCCCCCCC)cc2)cc1 [Example 45]
assay.system: S. pyogen. C203
quantity.kind: MIC
measure.unit: µg/mL
recorded.result: 1

molecule: Fc1ccc(Nc2cc[n+](CCCCCC[n+]3ccc(Nc4ccc(F)cc4)cc3)cc2)cc1 [Example 83B]
assay.system: S. pyogen. C203
quantity.kind: MIC
measure.unit: µg/mL
recorded.result: 7.8

molecule: CCCCCCCCCCNc1cc[n+](CCCCCCCCC[n+]2ccc(NCCCCCCCCCC)cc2)cc1 [Example 67]
assay.system: S. pyogen. C203
quantity.kind: MIC
measure.unit: µg/mL
recorded.result: 1.95

molecule: Nc1cc[n+](CCCCCCCC[n+]2ccc(N)cc2)cc1 [I, reference compound]
assay.system: S. pyogen. C203
quantity.kind: MIC
measure.unit: µg/mL
recorded.result: 31.3

Query string: Looking for the measured MIC of CC(CCCCCCCCC[n+]1ccc(N)cc1)[n+]1ccc(N)cc1 (centres unmarked) [VI, reference compound] , can you help?
Result string: 15.6

Query string: // repeat for CCCCCCNc1cc[n+](CCCCCCCCC[n+]2ccc(NCCCCCC)cc2)cc1 [Example 19] and report
Result string: 0.49

Query string: // repeat for CCCCCCCCNc1cc[n+](CCCCCCCCCCCCCC[n+]2ccc(NCCCCCCCC)cc2)cc1 [Example 46] and report
Result string: 1.95

---

- Tested on: young adult male Swiss-Webster strain albino mice
- protocol.summary: Acute oral toxicity (ALD50)
- Assay type: in vivo
- condition.description: 125 mg/kg oral, aqueous solution
quantity.kind: Mortality 24 Hrs

Query string: Looking for the measured Mortality 24 Hrs of CCCCCCCNc1cc[n+](CCCCCCCCCCCC[n+]2ccc(NCCCCCCC)cc2)cc1 [Example 3] , can you help?
Result string: 0/3

Query string: // repeat for CCCCCCCNc1cc[n+](CCCCCCCC[n+]2ccc(NCCCCCCC)cc2)cc1 [Example 23] and report
Result string: 0/3

Query string: // repeat for CCCCCCCNc1cc[n+](CCCCCCCCCC[n+]2ccc(NCCCCCCC)cc2)cc1 [Example 27] and report
Result string: 0/3

Query string: // repeat for CCCCCCCCNc1cc[n+](CCCCCCCC[n+]2ccc(NCCCCCCCC)cc2)cc1 [Example 12] and report
Result string: 0/3

Query string: // repeat for CCCCC(CC)CNc1cc[n+](CCCCCCCCCC[n+]2ccc(NCC(CC)CCCC)cc2)cc1 (stereo not shown) [Example 59] and report
Result string: 0/3

Query string: // repeat for CCCCCCCCNc1cc[n+](CCCCCCCCCC[n+]2ccc(NCCCCCCCC)cc2)cc1 [10A,B] and report
Result string: 0/3

Query string: // repeat for CCCCCCNc1cc[n+](CCCCCCCCCCCCCC[n+]2ccc(NCCCCCC)cc2)cc1 [Example 6] and report
Result string: 1/3
